assay: chemical genetic growth profiling, strain panel (AID 1159580);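 note: tested at 20 µM; growth read once vehicle control cultures reached saturation at 30 °C; 1 = growth at the plate median or of vehicle wells; lower values mean less growth of the strain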; settings: S. cerevisiae deletion strains, growth OD, locus YAL026C, strain drs2, stronger effect = lower value
In all, about 5,500 compounds went through this assay and about 2,000 (36%) were called active. Not shown: some 18% with an inconclusive outcome. This is one part of the list.
test readout: normalized growth
Give bare numbers.

Would you please look over these solved cases?
molecule	normalized growth
CC1=C(C(C)O)C2=NC1C=c1[nH]c(c(C)c1C(C)O)=Cc1[nH]c(c(CCC(=O)O)c1C)C=c1[nH]c(c(C)c1CCC(=O)O)=C2 (stereo not drawn)	0.988
CC(C(=O)O)c1ccc(-c2ccccc2)c(F)c1 (stereo not drawn)	0.949
CC(=O)OCC(=O)[C@@]1(O)CCC2C3CCC4=CC(=O)CC[C@]4(C)C3C(=O)C[C@@]21C (stereo partly drawn)	1.01

Lab note: each molecule below needs its normalized growth filled in.
1. CC(=O)OCC(=O)[C@H]1CCC2C3CCC4=CC(=O)CC[C@]4(C)C3CC[C@@]21C (stereo partly drawn)
2. CCOC(=O)C(Cc1ccc(O)cc1)NC(C)=O (stereo not drawn)
3. CN1CCC(=C2c3ccccc3Sc3ccccc32)CC1
4. COc1ccc(OC)c(C(O)C(C)N)c1 (stereo not drawn)
5. NCCSSCCN

1: 0.978; 2: 1.01; 3: 0.994; 4: 0.993; 5: 0.999
